Origin of the recorded values: PubChem BioAssay (NCI)

Tested on: IGROV1 ovarian
Assay: NCI-60 one-dose screen, 48 h (100 = growth as untreated, 0 = no growth, -100 = all killed)
Conditions: 10 µM unless noted
Experimental: Growth inhibition of the IGROV1 human tumor cell line is measured as a screen for anti-cancer activity. Cells are grown in 96 well plates and exposed to the test compound for 48 hours. Compounds are tested at a single concentration, which is 10^-5 M for most compounds. The reported endpoint is percent growth (GI% or GIPRCNT), where numbers from 0 - 100% represent growth inhibition, and numbers from -100% - 0 represent cell death. For example, a value of 40 represents 60% growth inhibition. […]
The panel holds about 83,000 compounds, 20% with a hit somewhere; the sample as a whole holds those more often. Activity calls are given as the source filed them. Rule for the calls: active = growth percent below 10; inactive = the rest.
Collected growth values appear next to each entry.

Below are worked cases with known answers.
- compound: "Cc1ccc(-c2nc(SCc3nc4cc(Cl)c(Cl)cc4[nH]3)[nH]c(=O)c2C#N)cc1"
  growth: "99.6% (inactive)"
- compound: "C#CC#CC#CC#CC#CC#CC#CC#CC[C@@H]1OC[C@@H](COC(=O)O[C@@H](C(=O)O[C@H]2C[C@@]3(O)[C@@H](OC(=O)c4ccccc4)[C@@H]4[C@]5(OC(C)=O)CO[C@@H]5C[C@H](O)[C@@]4(C)C(=O)[C@H](OC(C)=O)C(=C2C)C3(C)C)[C@@H](NC(=O)c2ccccc2)c2ccccc2)O1"
  growth: "19.3% (inactive)"
- compound: "NC1=Nc2cc(OCCCCN3Cc4ccccc4C3)c(OCC3CC3)cc2C12CCCC2"
  growth: "50% (inactive)"
- compound: "CCN1C(=O)N(CC)C2C1NN=c1s/c(=C3\\C(=O)N(CCC(C)C)c4ccccc43)c(=O)n12 (configuration not stated)"
  growth: "19.4% (inactive)"
- compound: "CC[C@]12C=CCN3CC[C@@]4(c5ccc(OC)cc5N(C)[C@H]4[C@@](O)(C(=O)OC)[C@@H]1OC(=O)CCC[P+](c1ccccc1)(c1ccccc1)c1ccccc1)[C@@H]32"
  growth: "-0.0574% (active)"

growth in this record for `Nc1nc(N)c(N=Nc2ccccc2)c(-c2ccccc2)n1` : 15.3% (inactive)
